tested on: HCT116; test: AC50 cell viability (CellTiter-Glo); higher = less potent; conditions: 48 h
Recorded Metric: log10(AC50 cell viability) (log10 of the value in µM)
Values reflect log10 of reported AC50 cell viability (µM).

COc1ccc(-c2oc3ncnc(N)c3c2-c2ccc(NC(=O)Nc3cc(C(F)(F)F)ccc3F)cc2)cc1 ... 0.67
N#Cc1c(C2CCNCC2)cc(-c2c(O)cccc2OCC2CC2)nc1N ... 1.02
NC1CCC(N[C@@H]2C[C@H]2c2ccccc2)CC1 (stereo not given in full) ... 1.22

-- ask Any idea what log10(AC50 cell viability) was measured for COc1cc2c(Oc3ccc(NC(=O)C4(C(=O)Nc5ccc(F)cc5)CC4)cc3F)ccnc2cc1OCCCN1CCOCC1 ?
-- reply 0.77

-- ask Given CCC1CCCCN1C(=O)n1ncc(C(O)(c2ccccc2)c2ccccc2)n1 (stereo not given) , state its recorded log10(AC50 cell viability).
-- reply 1.07

-- ask Query: log10(AC50 cell viability); subject: COC/1=C/C=C2\C(=C/C1=O)[C@H](CCC3=CC(=C(OC)C(=C23)OC)OC)NC(C)=O
-- reply -1.18

-- ask What value of log10(AC50 cell viability) has been reported for the following compound? COc1ccc(CNc2nc(N(CCO)CCO)nc3c2ncn3C(C)C)cc1
-- reply 0.52

-- ask # input compound: CC(C)[C@]12O[C@H]1[C@@H]3O[C@@]34[C@@]5(C)CC\C6=C(COC6=O)/[C@@H]5C[C@@H]7O[C@]47C2=O [Triptonide] ; wanted: its log10(AC50 cell viability)
-- reply -1.53

-- ask Endpoint output: log10(AC50 cell viability) of CN[C@@H]1C[C@H]2O[C@@](C)([C@@H]1OC)n1c3ccccc3c3c4c(c5c6ccccc6n2c5c31)C(=O)N[C@H]4O [7-Hydroxystaurosporine] . Value?
-- reply -0.62

-- ask Which log10(AC50 cell viability) value is on record for COC1=CC=C2[N](CCCN(C)C)C=C(C2=C1)C/3=C(/C(=O)NC3=O)C4=C[NH]C5=C4C=CC=C5 ?
-- reply 1.02

-- ask Can you look up the measured log10(AC50 cell viability) of C\C1=C(\[C@@H](OC2=C1C=CC(=C2)O)C3=CC=C(OCCN4CCCCC4)C=C3)C5=CC=C(O)C=C5 for me?
-- reply 1.27

====

test system: HCT116; experiment: efficacy (fitted maximal change in viability relative to DMSO control); higher = less cytotoxic (negative = loss of viability); details: 48 h
Param threshold (-70%) applies to efficacy; output Condition met when value >= threshold, Condition not met when value < threshold.

Record excerpt, results attached:
CN1\C(=C([O-])/C2=CC=CC=C2[S+]1([O-])=O)C(=O)NC3=NC=C(C)S3 [MELOXICAM SODIUM] ... Condition met
N#Cc1ccc2c(c1)CN([S+](=O)([O-])c1cccs1)[C@H](Cc1ccccc1)CN2Cc1cnc[nH]1 ... Condition not met
Cc1nc(NC(=O)N2CCC[C@H]2C(N)=O)sc1-c1ccnc(C(C)(C)C(F)(F)F)c1 ... Condition met
CC(C)COCC(CN(Cc1ccccc1)c1ccccc1)N1CCCC1 (stereo not given) ... Condition not met
CCN1CCN(Cc2ccc(-c3cc4c(N[C@H](C)c5ccccc5)ncnc4[nH]3)cc2)CC1 ... Condition not met
Cc1[nH]nc(C(F)(F)F)c1Cc1sc2c(c1C(=O)N1C[C@](C)(O)CO1)c(=O)n(C)c(=O)n2C(C)C ... Condition met

# ---- query compound ----
-- ask Given the entry CC(=O)Nc1ccc(OC[C@](C)(O)C(=O)Nc2ccc([N+](=O)[O-])c(C(F)(F)F)c2)cc1 , answer whether its efficacy meets or surpasses -70%.
-- reply Condition met

====

tested on: HCT116; assay: efficacy (fitted maximal change in viability relative to DMSO control); higher = less cytotoxic (negative = loss of viability); details: 48 h
Recorded Metric: efficacy (%)
Form entry: value (%) — number only.

For orientation, consider the following solved cases.
CN[S+]([O-])(=O)NC1=NC=CC(=C1F)CC/2=C(C)/C3=CC=C(OC4=NC=CC=N4)C=C3OC2=O ... -43.7
Cc1ccc(Nc2nnc(Cc3ccncc3)c3ccccc23)cc1Br [ACC-789] ... -84.8
c1ccc2c(Cc3c[nH]c4ccccc34)c[nH]c2c1 [Diindolylmethane] ... -49.5

-- ask Query (compound): CCn1cc(-c2ccnc3[nH]c(-c4cccc(CN(C)C)c4)cc23)c(-c2ccc(NC(=O)N(C)C)cc2)n1 ; field requested: efficacy
-- reply -101

-- ask Consider the compound CN1CCN(Cc2ccc(NC(=O)Nc3ccc(Oc4cc(NC(=O)C5CC5)ncn4)cc3)cc2C(F)(F)F)CC1 [WS-3] and give its measured efficacy.
-- reply -73.9

-- ask Would you mind telling me what efficacy value was observed for Cc1ccc(-c2ccc3c(ccc4sc5c(c43)NC[C@@H](C)NC5=O)n2)cn1 ?
-- reply -96.2

====

test system: HCT116; test: efficacy (fitted maximal change in viability relative to DMSO control); higher = less cytotoxic (negative = loss of viability); conditions: 48 h
Let's look at some compounds and their measured efficacy.
Reply numerically in %, unit not repeated.

These solved cases illustrate the format of a correct answer.
COCCCc1sc(-c2ccccc2)nc1C(=O)Nc1ccccc1-c1nc2cc(CN3CCCC3)cnc2s1 [SRT-3025] ... 7.71
Cc1n[nH]c2ccc(-c3cncc(OC[C@@H](N)Cc4c[nH]c5ccccc45)c3)cc12 ... -80.2

-- ask Name the recorded efficacy for Nc1ncnc2c1ncn2[C@@H]1O[C@H](CO)C[C@H]1O [Cordycepin] .
-- reply -20.6

-- ask State the recorded efficacy for this entry: Cc1ccc(NC(=O)NCc2ccc3c(c2)CN(C2CCC(=O)NC2=O)C3=O)cc1Cl (centres undefined) [CC-885]
-- reply -42.4

-- ask For the compound shown here, O=[N+]([O-])c1ccc(-c2nc(-c3ccc(F)cc3)c(-c3ccncc3)[nH]2)cc1 , give the reported efficacy.
-- reply -23.7

-- ask # input compound: CC(C)C1=N[N](C\2=C1C(=O)N\C(=N2)CC3=CC=C(OCCO)C=C3)C4=C(Cl)C=CC=C4Cl ; wanted: its efficacy
-- reply -63.1

-- ask // query efficacy value for entry O=C(Nc1ccc(-c2ccnc(Nc3ccc(N4CCOCC4)cc3)n2)cc1)C1CCCN1 (centres undefined) [XL-019]
-- reply -19.1

-- ask What does the data say about its efficacy? Entry: CCNC(=O)Nc1ccc(Oc2ncnc(N)c2/C=N/OC)cc1Cl
-- reply -70.7

====

test system: HCT116; test: AC50 cell viability (CellTiter-Glo); higher = less potent; conditions: 48 h
Counter-ions that a name gives are not always drawn.
Recorded Metric: AC50 cell viability (µM)
Provide only the numeric value, understood in µM.

Completed entries (count: 8):
C[C@@H]1CC(=O)Nc2cccc(-c3ccc4c(c3)c(-c3cnn(C)c3)nn4C)c2N1 [CPI-637] ... 11.8
Cc1cccc(Nc2nc(-c3ccncc3)cs2)c1 ... 18.6
Cc1ccc([N+](=O)[O-])cc1[S+](=O)([O-])N(C)/N=C/c1cnc2ccc(Br)cn12 [PIK-75] ... 0.0525
COc1ccc(Nc2cc(-c3cnc(N)nc3)nc(N3CCOCC3)n2)cn1 [NIBR-17] ... 2.63
Cc1cc(O[C@@H](CCC(F)(F)F)c2ccc(C(=O)NCCC(=O)O)cc2)cc(C)c1-c1ccc(C(C)(C)C)cc1 [Adomeglivant] ... 26.3
CN1CCN(c2ncc(-c3cc(Cl)cc(Cl)c3Cl)c(N)n2)CC1 [Sipatrigine] ... 18.6
OCCN1CCN(CCCN2c3ccccc3Sc3ccc(C(F)(F)F)cc32)CC1 [Fluphenazine hydrochloride] ... 7.42
O=C(NCCCNC(=O)c1cccnc1O)c1cc(-c2ccccc2)on1 [ML327] ... 8.33

Here is another compound to look at.
-- ask I have this compound here, COc1cc2c(Nc3ccc(Cl)c(Cl)c3F)ncnc2cc1OC[C@@H]1C[C@@H]2CN(C)C[C@@H]2C1 [XL647] , and I need its recorded AC50 cell viability.
-- reply 11.8

====

test system: HCT116; assay: AC50 cell viability (CellTiter-Glo); higher = less potent; conditions: 48 h
Structures can show the parent of a compound that is named as a salt.
Label key: true (1) means AC50 cell viability under 2 µM; false (0) means AC50 cell viability of 2 µM or more.

C[C@@]12C(=O)OC(=O)[C@]1(C)[C@H]1CC[C@@H]2O1 ... false (0)

-- ask API: query returns whether the molecule falls strictly under 2 µM in AC50 cell viability. Query: C=C1C(=O)[C@@]23C(CC[C@@H]1[C@H]2O)[C@@]12CO[C@]3(O)[C@@H](O)[C@@H]1C(C)(C)CC[C@@H]2O (stereo not given in full)
-- reply false (0)

-- ask Bench note: check whether CC[C@]1(O)C[C@H]2CN(CCC3=C([NH]C4=C3C=CC=C4)[C@@](C2)(C(=O)OC)C5=C(OC)C=C6N(C)[C@H]7[C@](O)([C@H](OC(C)=O)[C@]8(CC)\C=C/CN9CC[C@]7([C@H]89)C6=C5)C(=O)OC)C1 [VINBLASTINE SULFATE] shows AC50 cell viability below 2 µM
-- reply true (1)

-- ask Hi there! Is AC50 cell viability for CCN(C)[S+](=O)([O-])Nc1ccc(F)c(C(=O)c2c[nH]c3ncc(-c4cnc(C5CC5)nc4)cc23)c1F below 2 µM, do you know?
-- reply false (0)

-- ask Here's an entry: CCN(CC)CCCCNc1ncc2c(n1)N(C)C(=O)N(c1c(Cl)c(OC)cc(OC)c1Cl)C2 . Is its AC50 cell viability below 2 µM?
-- reply false (0)

-- ask Here's an entry: CNC(=O)Cn1cc(-c2ccc3c(c2)C(F)CC32NC(=O)N(CC(=O)N(Cc3ccc(F)cc3)[C@@H](C)C(F)(F)F)C2=O)cn1 (stereo not given in full) . Is its AC50 cell viability below 2 µM?
-- reply true (1)

-- ask Confirm or reject: AC50 cell viability of Nc1cc(C(F)(F)F)c(-c2cc(N3CCOCC3)nc(N3CCOCC3)n2)cn1 lies strictly below 2 µM
-- reply true (1)

-- ask For this molecule, is AC50 cell viability lower than 2 µM? C[C@@]1(c2ncncc2F)NC(=O)c2cc(-c3cn[nH]c3)ccc21
-- reply false (0)

-- ask AC50 cell viability under 2 µM? Item: CC(C)(Cc1ccc2ccccc2c1)NC[C@@H](O)COc1cccc(Cl)c1C#N
-- reply false (0)

-- ask Hi there! Is AC50 cell viability for CC(=O)Nc1ccc([C@H](C)C(=O)Nc2ncc(C(C)C)s2)cc1 below 2 µM, do you know?
-- reply false (0)
